Target: human GLP-1 receptor (Homo sapiens, UniProt P43220)
Construct: expressed in transfected cells; host or cells: BHK (Baby Hamster Kidney) cells, clone BHK 467-12A KZ-10, stably transfected, with CRE-luciferase reporter
Sequence (P43220 24-463): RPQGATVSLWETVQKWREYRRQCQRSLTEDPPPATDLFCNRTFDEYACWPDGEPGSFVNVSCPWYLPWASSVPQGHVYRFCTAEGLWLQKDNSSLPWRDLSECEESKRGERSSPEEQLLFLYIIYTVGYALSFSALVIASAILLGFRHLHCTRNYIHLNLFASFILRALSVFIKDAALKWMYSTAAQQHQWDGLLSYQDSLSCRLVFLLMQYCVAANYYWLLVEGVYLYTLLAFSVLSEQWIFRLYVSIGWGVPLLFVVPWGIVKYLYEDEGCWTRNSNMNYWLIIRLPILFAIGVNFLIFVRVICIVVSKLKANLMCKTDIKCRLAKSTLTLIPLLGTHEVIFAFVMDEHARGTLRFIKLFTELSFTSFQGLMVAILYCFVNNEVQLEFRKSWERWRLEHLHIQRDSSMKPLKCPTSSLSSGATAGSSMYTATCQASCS
Assay: Human GLP-1 receptor in vitro potency assay (CRE-luciferase reporter, BHK cells)
Format: cell-based
Details: Table 4a; BHK cells expressing human GLP-1R, CRE-Luc, 3 hours; read-out: Human GLP-1R potency [EC50 (pM)]
Starred links: 1 amine or outer side, 2 acyl side, 3 side chain; linkers in the order of their positions; H or OH if unused. Non-standard residues stand in square brackets, D forms with d. Groups on a side chain read outwards from the residue. *: point of attachment. C20 diacid = O=C(O)CCCCCCCCCCCCCCCCCCC(=O)*; C18 diacid = O=C(O)CCCCCCCCCCCCCCCCC(=O)*; γGlu = O=C(O)[C@H](CCC(=O)[*:2])N[*:1]; C14 diacid = O=C(O)CCCCCCCCCCCCC(=O)*; εLys = N[C@@H](CCCCN[*:1])C(=O)[*:2]; Trx = NC[C@H]1CC[C@H](C(=O)O)CC1; AEEA = NCCOCCOCC(=O)O; Aib = CC(C)(N)C(=O)O
readout-name: EC50 (pM)
Numbers only, in pM.

Recorded EC50, per entry:
H-H[Aib]EGTFTSDVSSYLEEQAARK([εLys-AEEA-AEEA-γGlu-Trx-C20 diacid])FIEWLVRGRGEASELSTAALGRLSAELHELATLPRTETGSGSP-NH2 [Compound 0439]: 8.3
H-HGEGTFTSDVSSYLEEQAARK([AEEA-AEEA-γGlu-C14 diacid])FIEWLVRGK([AEEA-AEEA-γGlu-C14 diacid])GEASELSTAALGRLSAELHELATLPRTETGSGSP-NH2 [Compound 0039]: 34.8
H-H[Aib]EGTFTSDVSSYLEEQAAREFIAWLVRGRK([AEEA-AEEA-γGlu-C18 diacid])GGGGSGGGEASELSTAALGRLSAELHELATLPRTETGSGSP-NH2 [Compound 0637]: 1.9

Then this substance:
Write down the reported EC50 of H-H[Aib]EGTFTSDVSSYLEEQAARK([AEEA-AEEA-γGlu-C18 diacid])FIAWLVRGRGGGGGEASELSTAALGRLSAELHELATLPRTETGSGSP-NH2 [Compound 0639] , test system: human GLP-1 receptor (Homo sapiens, UniProt P43220).
1.5

* * *

Target: human amylin receptor (hAmyR3) (Homo sapiens, UniProt O60896+P30988)
Construct: host or cells: BHK cells (Hollex-1 line: human calcitonin receptor (a) + CRE-Luc), further transfected with human RAMP3
Sequence (P30988 25-474): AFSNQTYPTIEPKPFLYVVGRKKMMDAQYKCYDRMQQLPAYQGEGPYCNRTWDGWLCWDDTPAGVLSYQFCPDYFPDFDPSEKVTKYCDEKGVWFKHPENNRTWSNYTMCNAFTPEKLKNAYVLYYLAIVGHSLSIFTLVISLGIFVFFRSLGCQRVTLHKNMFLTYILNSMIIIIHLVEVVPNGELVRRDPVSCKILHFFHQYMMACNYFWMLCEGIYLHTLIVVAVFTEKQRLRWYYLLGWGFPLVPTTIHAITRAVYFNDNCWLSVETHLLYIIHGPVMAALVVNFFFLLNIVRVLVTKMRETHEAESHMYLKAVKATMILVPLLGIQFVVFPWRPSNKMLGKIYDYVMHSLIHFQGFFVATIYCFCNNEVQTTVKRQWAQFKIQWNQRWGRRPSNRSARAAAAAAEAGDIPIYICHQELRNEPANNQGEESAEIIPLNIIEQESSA
Sequence (O60896 24-148): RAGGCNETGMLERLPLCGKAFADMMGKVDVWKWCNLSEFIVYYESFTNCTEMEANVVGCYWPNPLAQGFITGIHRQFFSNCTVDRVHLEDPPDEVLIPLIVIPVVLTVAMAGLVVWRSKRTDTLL
Assay: Human amylin receptor in vitro potency assay (CRE-luciferase reporter, BHK cells);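 note: BHK cells expressing human calcitonin receptor plus RAMP3 (amylin-3 receptor) with a CRE-luciferase reporter, agonist activity read as luminescence from cAMP-driven transcription, 7-point serial dilutions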
Type: cell-based
Conditions: Table 4a; BHK hAmyR3/CRE-Luc cells, 3 hours; read-out: Human AmyR3 potency [EC50 (pM)]
Starred links: 1 amine or outer side, 2 acyl side, 3 side chain; linkers in the order of their positions; H or OH if unused. Non-standard residues stand in square brackets, D forms with d. Groups on a side chain read outwards from the residue. *: point of attachment. C18 diacid = O=C(O)CCCCCCCCCCCCCCCCC(=O)*; C16 diacid = O=C(O)CCCCCCCCCCCCCCC(=O)*; γGlu = O=C(O)[C@H](CCC(=O)[*:2])N[*:1]; AEEA = NCCOCCOCC(=O)O; Aib = CC(C)(N)C(=O)O
Would you mind telling me the reported EC50 of each entry?
Answers are plain numbers, in pM.

Provide each entry's EC50 from the list below.
1. H-H[Aib]EGTFTSDVSK([γGlu-γGlu-γGlu-γGlu-C16 diacid])YLEEQAARK([γGlu-γGlu-γGlu-γGlu-C16 diacid])FIAWLVRGRGEASELSTAALGRLSAELHELATLPRTETGSGSP-NH2 [Compound 0634]
2. H-H[Aib]EGTFTSDVSSYLEGQAAK([AEEA-AEEA-γGlu-C18 diacid])EFIAWLVRGRGGGGGGGGGGGGGEASELSTAALGRLSAELHELATLPRTETGSGSP-NH2 [Compound 0092]

1: 59.4; 2: 10.9

Entry H-H[Aib]EGTFTSDVSSYLEEQAARK([AEEA-AEEA-γGlu-C16 diacid])FIAWLVRGRGGGGGEASELSTAALGRLSAELHK([AEEA-AEEA-γGlu-C16 diacid])LATLPRTETGSGSP-NH2 [Compound 0509] : reported EC50 = ?
29.9

* * *

Target: human GLP-1 receptor (Homo sapiens)
Construct: expressed in transfected cells; host or cells: BHK (Baby Hamster Kidney) cells, clone BHK 467-12A KZ-10, stably transfected, with CRE-luciferase reporter
Experiment: Human GLP-1 receptor in vitro potency assay (CRE-luciferase reporter, BHK cells)
Assay type: cell-based
Conditions: Table 4a; BHK cells expressing human GLP-1R, CRE-Luc, 3 hours; read-out: Human GLP-1R potency [EC50 (pM)]
Starred links: 1 amine or outer side, 2 acyl side, 3 side chain; linkers in the order of their positions; H or OH if unused. Non-standard residues stand in square brackets, D forms with d. Groups on a side chain read outwards from the residue. *: point of attachment. X1 = O=C(O)CCCCCCCCCCCCCCC(=O)N[C@@H](CCC(=O)NCCOCCOCC(=O)NCCOCCOCC(=O)NCCCC[C@H](NC(=O)COCCOCCNC(=O)COCCOCCNC(=O)CC[C@H](NC(=O)CCCCCCCCCCCCCCC(=O)O)C(=O)O)C(=O)*)C(=O)O; Hexadecanoyl(16-SO3H) = O=C(CCCCCCCCCCCCCCCS(=O)(=O)O)*; C20 diacid = O=C(O)CCCCCCCCCCCCCCCCCCC(=O)*; C18 diacid = O=C(O)CCCCCCCCCCCCCCCCC(=O)*; C16 diacid = O=C(O)CCCCCCCCCCCCCCC(=O)*; γGlu = O=C(O)[C@H](CCC(=O)[*:2])N[*:1]; Desaminohistidyl = O=C(CCc1c[nH]cn1)*; εLys = N[C@@H](CCCCN[*:1])C(=O)[*:2]; Trx = NC[C@H]1CC[C@H](C(=O)O)CC1; AEEA = NCCOCCOCC(=O)O; Aib = CC(C)(N)C(=O)O
readout-name: log10 EC50 (log10 of the value in pM)
All values: log10 EC50 [pM].

H-H[Aib]EGTFTSDVSSYLEGQAAK([AEEA-AEEA-γGlu-C18 diacid])EFIAWLVRGRGGGGGGGGGEASELSTAALGRLSAELHELATLPRTETGSGSP-NH2 [Compound 0052]: 1.23
H-H[Aib]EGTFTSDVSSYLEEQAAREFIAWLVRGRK([AEEA-AEEA-γGlu-Hexadecanoyl(16-SO3H)])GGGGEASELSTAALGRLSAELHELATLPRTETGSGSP-NH2 [Compound 0654]: 0.46
H-H[Aib]EGTFTSDVSK([AEEA-AEEA-γGlu-C16 diacid])YLEEQAARK([AEEA-AEEA-γGlu-C16 diacid])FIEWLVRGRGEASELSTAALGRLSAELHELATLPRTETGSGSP-NH2 [Compound 0577]: 0.75
H-H[Aib]EGTFTSDVSSYLEEK([AEEA-AEEA-γGlu-C16 diacid])AAREFIAWLVRGRGGGGGEASELSTAALGRLSAELHELATLPRTETGK([AEEA-AEEA-γGlu-C16 diacid])GSP-NH2 [Compound 0411]: 0.54
H-H[Aib]EGTFTSDVSSYLEEQAAK([εLys-AEEA-AEEA-γGlu-Trx-C20 diacid])EFIEWLVRGRGEASELSTAALGRLSAELHELATLPRTETGSGSP-NH2 [Compound 0436]: 1.18
H-H[Aib]EGTFTSDVSK([AEEA-X1])YLEEQAAREFIAWLVRGRGGGGGEASELSTAALGRLSAELHELATLPRTETGSGSP-NH2 [Compound 0564]: 1.39
Desaminohistidyl-AEGTFTSDVSSYLEEQAAREFIAWLVRGRK([AEEA-AEEA-γGlu-C18 diacid])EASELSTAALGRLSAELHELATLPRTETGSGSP-NH2 [Compound 0051]: 1.16
H-H[Aib]EGTFTSDVSK([AEEA-AEEA-γGlu-C16 diacid])YLEEQAARK([AEEA-AEEA-γGlu-C16 diacid])FIAWLVRGRQEGGGGGASELSTAALGRLSAELHELATLPRTETGSGSP-NH2 [Compound 0575]: 0.75
H-H[Aib]EGTFTSDVSSYLEGQAAREFIAWLVRGK([AEEA-AEEA-γGlu-C18 diacid])GEGEGEEASELSTAALGRLSAELHELATLPRTETGSGSP-NH2 [Compound 0009]: 0.90

// next entry
# get_value(readout='log10 EC50', item= H-H[Aib]EGTFTSDVSSYLEEQAAREFIAWLVRGK([AEEA-AEEA-γGlu-C16 diacid])GGGGGEASELSTAALGRLSAELHELATLK([AEEA-AEEA-γGlu-C16 diacid])RTETGSGSP-NH2 [Compound 0284] )
1.62
